- Target Desc: recombinant full-length FEN-1 (Homo sapiens (Human), UniProt P39748)
- Sequence (P39748 whole entry): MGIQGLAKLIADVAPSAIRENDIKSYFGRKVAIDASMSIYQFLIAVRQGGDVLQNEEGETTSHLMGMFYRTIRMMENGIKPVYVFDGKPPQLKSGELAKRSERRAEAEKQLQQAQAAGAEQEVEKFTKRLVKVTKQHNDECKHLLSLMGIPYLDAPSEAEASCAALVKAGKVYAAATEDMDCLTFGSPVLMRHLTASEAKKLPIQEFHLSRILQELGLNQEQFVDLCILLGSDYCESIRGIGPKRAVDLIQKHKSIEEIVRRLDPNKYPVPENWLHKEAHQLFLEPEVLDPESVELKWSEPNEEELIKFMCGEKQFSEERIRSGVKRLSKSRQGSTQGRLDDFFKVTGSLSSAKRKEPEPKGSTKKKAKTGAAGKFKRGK
- Measurement Notes: Fluorogenic biochemical (enzymatic) assay, FEN-1
- Run Conditions: 200 nM DNA flap substrate, 50 mM Tris pH 8.0, 10 mM MgCl2, 2-4 hours at 25° C. or 37° C., read-out: SMD FEN-1 IC50
Endpoint Name: IC50 (nM)

1 = O=c1[nH]c2ccncc2c(=O)n1O [Compound 13]
2 = CC(=O)Nc1cccc(S(=O)(=O)c2cccc3c(=O)n(O)c(=O)[nH]c23)c1 [Compound 55]
3 = O=c1[nH]c2c(Cc3ccccc3)ccc(Cl)c2c(=O)n1O [Compound 28]
Prompt line: Returns the items ordered by IC50, from maximum to minimum. Respond with the label ranking, as requested.
Response line: 1, 3, 2
(1: 1310 nM, 3: 77.2 nM, 2: 16.5 nM)

I = O=c1[nH]c2c(-c3ccccc3)ccc(Cl)c2c(=O)n1O [Compound 26]
II = O=c1[nH]c2c(S(=O)(=O)c3ccccc3)c(F)ccc2c(=O)n1O [Compound 68]
Prompt line: Hi, I'm comparing I with II and wondering which one has the bigger number for IC50. Any idea? Label of pick, please.
Response line: II

1 = O=c1[nH]c2cc(-c3ccccc3)ccc2c(=O)n1O [Compound 15]
2 = CC(=O)Nc1cc(NC(C)=O)cc(S(=O)(=O)c2cccc3c(=O)n(O)c(=O)[nH]c23)c1 [Compound 73]
Prompt line: Which is greater in IC50, the first item 1 or the second item 2 ? Choose, then provide that item's label.
Response line: 1
(1: 356 nM, 2: 7.6 nM)

I = O=c1[nH]c2ccccc2c(=O)n1O [Compound 12]
II = O=c1[nH]c2c(S(=O)(=O)c3cccs3)ccc(Cl)c2c(=O)n1O [Compound 79]
III = COc1ccc(S(=O)(=O)c2ccccc2)c2[nH]c(=O)n(O)c(=O)c12 [Compound 78]
IV = Cc1cccc(S(=O)(=O)c2c(Cl)ccc3c(=O)n(O)c(=O)[nH]c23)c1 [Compound 52]
V = O=c1[nH]c2cc(S(=O)(=O)Cc3ccccc3)cnc2c(=O)n1O [Compound 25]
Prompt line: Sort ascending by IC50. List the labels according to the requested ordering.
Response line: III, II, IV, I, V
(III: 6.6 nM, II: 16.6 nM, IV: 139 nM, I: 241 nM, V: 1640 nM)

I = Cc1ccc(S(=O)(=O)c2cccc3c(=O)n(O)c(=O)[nH]c23)cc1 [Compound 31]
II = O=c1[nH]c2cccc(F)c2c(=O)n1O [Compound 39]
III = Cc1cc(C)cc(S(=O)(=O)c2cccc3c(=O)n(O)c(=O)[nH]c23)c1 [Compound 50]
Prompt line: Task for the reader: rank each entry by its IC50, from the minimum upward. Put the labels in the order asked and list them.
Response line: III, I, II

P = Cc1cccc(S(=O)(=O)c2ccc(Cl)c3c(=O)n(O)c(=O)[nH]c23)c1 [Compound 48]
Q = O=c1[nH]c2c(S(=O)(=O)c3ccc(Br)cc3)cccc2c(=O)n1O [Compound 45]
Prompt line: Could you point out whether the larger IC50 belongs to P or to Q ? Provide the label of your selected option as the answer.
Response line: Q
(Q: 14 nM, P: 9.3 nM)

I = O=c1[nH]c2ncccc2c(=O)n1O [Compound 14]
II = O=c1[nH]c2c(S(=O)(=O)c3cc(Cl)cc(Cl)c3)cccc2c(=O)n1O [Compound 54]
Prompt line: Which has the smaller recorded IC50, I or II ? Answer format: the label of the selected item.
Response line: II
(II: 18.1 nM, I: 106 nM)
